Hey, just so you know, these numbers are from the supplement of paper PMC10219994.

B1: library; a variant is named by its letters at N, in order (parent)
chain: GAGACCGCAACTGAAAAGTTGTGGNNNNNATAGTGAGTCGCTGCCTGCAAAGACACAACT

Variants of: B1
Assay: ligation selection enrichment (abundance after / before one-round selection) (fold); higher = more template-directed ligation activity
Details: with T7Psub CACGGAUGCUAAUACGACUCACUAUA; MgCl2 25 mM; 42 °C; 4 h; pH 8.5
Please mark y if the recorded ligation selection enrichment is equal to or greater than 0.2, and n if it falls below.

Ask: Decide: is the reported value of ligation selection enrichment for TTACC equal to or greater than 0.2?
Reply: n

Others:
Ask: Does ligation selection enrichment meet or surpass 0.2 for ATGGT ?
Reply: n

Ask: Hi, just wondering whether CCATG shows ligation selection enrichment of 0.2 or higher.
Reply: n

Ask: API: above_or_equal(metric=ligation selection enrichment, cutoff=0.2) for item TAGTT
Reply: y

Ask: Given ACCAC , state whether its ligation selection enrichment is at least 0.2.
Reply: n

Ask: Is the recorded value of ligation selection enrichment equal to or greater than 0.2 for this variant? AATAG
Reply: y

Ask: Could you verify whether the entry ACCAT shows ligation selection enrichment of no less than 0.2?
Reply: y
